test system: Pyricularia oryzae; test: microbe, parasite or virus in culture; assay type: cell-based; details: Pyricularia oryzae, 72 h, read-out: Percent Fungus Growth Inhibition, PO, 5 ppm, 72 hours
Think of 20% as a floor: if inhibition at 5 ppm stands on it or above, it is t; beneath it, f.

See these solved cases before continuing.
compound	target	answer.label
Cc1ccc(Oc2nsnc(Cl)c2=O)c(C)c1	Pyricularia oryzae	t
O=c1c(Cl)nsnc1Oc1cccc2ccccc12	Pyricularia oryzae	t
O=c1c(Cl)nsnc1Oc1ccc(Cl)cc1	Pyricularia oryzae	f
COc1cc(Oc2nsnc(Cl)c2=O)cc(OC)c1C(C)=O	Pyricularia oryzae	t
O=c1c(Cl)nsnc1Oc1ccccc1	Pyricularia oryzae	t

Is the recorded value of inhibition at 5 ppm equal to or greater than 20% for this compound? CNC(=O)Nc1ccc(Oc2nsnc(Cl)c2=O)cc1 t

// query: Cc1cc(Oc2nsnc(Cl)c2=O)cc(C)c1Cl t

// query: O=C(OCc1ccccc1)Oc1ccc(Oc2nsnc(Cl)c2=O)cc1 f

// query: C[S+]([O-])c1ccc(Oc2nsnc(Cl)c2=O)cc1 (stereo not shown) t

// query: O=c1c(Cl)nsnc1Oc1ccccc1Br t

---

system: Phytophthora infestans; type: cell-based; settings: PI, 2.5 ppm, 48 hours
measure.name: Spore Germination Rating

molecule	Spore Germination Rating
O=C(OCc1ccccc1)Oc1ccc(Oc2nsnc(Cl)c2=O)cc1	4 (80-100)

Hey, can you go through the list below and give me Spore Germination Rating for every item?
1. COc1cc(Cl)cc(Oc2nsnc(Cl)c2=O)c1
2. O=c1c(Cl)nsnc1Oc1c(Cl)cc(Cl)cc1Cl
3. Cc1ccc(Oc2nsnc(Cl)c2=O)c(C)c1
4. Cc1cc(Oc2nsnc(Cl)c2=O)cc(C)c1Br

1. 0 (0-10)
2. 1 (10-40)
3. 2 (40-60)
4. 2 (40-60)

Hey, can you go through the list below and give me Spore Germination Rating for every item?
1. CS(=O)(=O)c1ccc(Oc2nsnc(Cl)c2=O)cc1
2. Cc1ccccc1Oc1nsnc(Cl)c1=O
3. Cc1ccc(Cl)c(Oc2nsnc(Cl)c2=O)c1
4. CCCCOc1ccc(Oc2nsnc(Cl)c2=O)cc1
5. O=c1c(Cl)nsnc1Oc1ccc([N+](=O)[O-])cc1Cl

1: 2 (40-60); 2: 0 (0-10); 3: 0 (0-10); 4: 0 (0-10); 5: 0 (0-10)

---

system: Pyricularia oryzae; format: cell-based; details: PO, 1.0 ppm, 48 hours
I'd be grateful if you could share measured Spore Germination Rating for these entries.

Look over these answered cases.
molecule	target	Spore Germination Rating
O=c1c(Cl)nsnc1Oc1ccc(Cl)c(Cl)c1	Pyricularia oryzae	0 (0-10)
Cc1cc(Cl)ccc1Oc1nsnc(Cl)c1=O	Pyricularia oryzae	1 (10-40)

Hey, can you go through the list below and give me Spore Germination Rating for every item?
1. O=c1c(Cl)nsnc1Oc1ccccc1Br
2. CCCCNC(=O)n1c(NC(=O)OC)nc2ccccc21 [Benomyl, reference compound]

1. 1 (10-40)
2. 4 (80-100)

Hey, can you go through the list below and give me Spore Germination Rating for every item?
1. CNC(=O)Nc1ccc(Oc2nsnc(Cl)c2=O)cc1
2. O=c1c(Cl)nsnc1Oc1c(Cl)cc(Cl)cc1Cl
3. O=c1c(Cl)nsnc1Oc1cc(Cl)cc(Cl)c1
4. O=c1c(Cl)nsnc1Oc1ccc([N+](=O)[O-])cc1
5. CC(C)(C)c1ccc(Oc2nsnc(Cl)c2=O)cc1
6. O=c1c(Cl)nsnc1Oc1ccc(Br)cc1

["4 (80-100)", "3 (60-80)", "1 (10-40)", "0 (0-10)", "4 (80-100)", "0 (0-10)"]
